Overview of recorded IC50 for various compounds
- measured-on: human aldosterone synthase (CYP11B2) (Homo sapiens, UniProt P19099)
- Sequence (P19099 25-503): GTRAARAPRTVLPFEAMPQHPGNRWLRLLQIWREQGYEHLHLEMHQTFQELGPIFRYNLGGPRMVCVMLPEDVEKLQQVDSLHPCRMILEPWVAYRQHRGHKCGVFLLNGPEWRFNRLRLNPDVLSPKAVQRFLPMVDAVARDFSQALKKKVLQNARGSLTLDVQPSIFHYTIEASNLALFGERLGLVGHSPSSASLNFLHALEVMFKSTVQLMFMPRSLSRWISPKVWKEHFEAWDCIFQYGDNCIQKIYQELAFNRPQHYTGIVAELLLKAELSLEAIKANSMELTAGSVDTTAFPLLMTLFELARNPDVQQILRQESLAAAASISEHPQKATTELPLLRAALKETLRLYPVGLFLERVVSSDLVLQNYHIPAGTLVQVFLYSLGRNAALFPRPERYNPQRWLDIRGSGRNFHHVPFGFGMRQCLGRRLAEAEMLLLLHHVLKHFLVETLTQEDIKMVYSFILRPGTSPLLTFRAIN
- test-description: Test for CYP11B2 inhibitors in V79 MZh11B2 cells (test system B)
- assay-context: Table 1, V79 MZh11B2 cells, read-out: IC50 V79 11B2 hCYP11B2
Respond with the bare value in nM.

Reference set (3 entries):
Task item: Field request: IC50 | item: O=C1CCc2cc(-c3cccnc3)ccc2N1 [Example 1]
Reply: 28

Task item: Same question, CCN1C(=O)CCc2cc(-c3cccnc3)ccc21 [Example 9] this time
Reply: 21

Task item: Same question, COc1cncc(-c2ccc3c(c2)CCC(=O)N3C)c1 [Example 6] this time
Reply: 0.2

Further cases:
Task item: Field request: IC50 | item: O=C1CCc2cc(-c3cccnc3)cc(Cl)c2N1 [Example 12]
Reply: 3.8

Each recorded value in this set is attributed to patent US8541404B2.
